# test-system: SMARCA2 (Homo sapiens)
# Sequence (P51531 whole entry): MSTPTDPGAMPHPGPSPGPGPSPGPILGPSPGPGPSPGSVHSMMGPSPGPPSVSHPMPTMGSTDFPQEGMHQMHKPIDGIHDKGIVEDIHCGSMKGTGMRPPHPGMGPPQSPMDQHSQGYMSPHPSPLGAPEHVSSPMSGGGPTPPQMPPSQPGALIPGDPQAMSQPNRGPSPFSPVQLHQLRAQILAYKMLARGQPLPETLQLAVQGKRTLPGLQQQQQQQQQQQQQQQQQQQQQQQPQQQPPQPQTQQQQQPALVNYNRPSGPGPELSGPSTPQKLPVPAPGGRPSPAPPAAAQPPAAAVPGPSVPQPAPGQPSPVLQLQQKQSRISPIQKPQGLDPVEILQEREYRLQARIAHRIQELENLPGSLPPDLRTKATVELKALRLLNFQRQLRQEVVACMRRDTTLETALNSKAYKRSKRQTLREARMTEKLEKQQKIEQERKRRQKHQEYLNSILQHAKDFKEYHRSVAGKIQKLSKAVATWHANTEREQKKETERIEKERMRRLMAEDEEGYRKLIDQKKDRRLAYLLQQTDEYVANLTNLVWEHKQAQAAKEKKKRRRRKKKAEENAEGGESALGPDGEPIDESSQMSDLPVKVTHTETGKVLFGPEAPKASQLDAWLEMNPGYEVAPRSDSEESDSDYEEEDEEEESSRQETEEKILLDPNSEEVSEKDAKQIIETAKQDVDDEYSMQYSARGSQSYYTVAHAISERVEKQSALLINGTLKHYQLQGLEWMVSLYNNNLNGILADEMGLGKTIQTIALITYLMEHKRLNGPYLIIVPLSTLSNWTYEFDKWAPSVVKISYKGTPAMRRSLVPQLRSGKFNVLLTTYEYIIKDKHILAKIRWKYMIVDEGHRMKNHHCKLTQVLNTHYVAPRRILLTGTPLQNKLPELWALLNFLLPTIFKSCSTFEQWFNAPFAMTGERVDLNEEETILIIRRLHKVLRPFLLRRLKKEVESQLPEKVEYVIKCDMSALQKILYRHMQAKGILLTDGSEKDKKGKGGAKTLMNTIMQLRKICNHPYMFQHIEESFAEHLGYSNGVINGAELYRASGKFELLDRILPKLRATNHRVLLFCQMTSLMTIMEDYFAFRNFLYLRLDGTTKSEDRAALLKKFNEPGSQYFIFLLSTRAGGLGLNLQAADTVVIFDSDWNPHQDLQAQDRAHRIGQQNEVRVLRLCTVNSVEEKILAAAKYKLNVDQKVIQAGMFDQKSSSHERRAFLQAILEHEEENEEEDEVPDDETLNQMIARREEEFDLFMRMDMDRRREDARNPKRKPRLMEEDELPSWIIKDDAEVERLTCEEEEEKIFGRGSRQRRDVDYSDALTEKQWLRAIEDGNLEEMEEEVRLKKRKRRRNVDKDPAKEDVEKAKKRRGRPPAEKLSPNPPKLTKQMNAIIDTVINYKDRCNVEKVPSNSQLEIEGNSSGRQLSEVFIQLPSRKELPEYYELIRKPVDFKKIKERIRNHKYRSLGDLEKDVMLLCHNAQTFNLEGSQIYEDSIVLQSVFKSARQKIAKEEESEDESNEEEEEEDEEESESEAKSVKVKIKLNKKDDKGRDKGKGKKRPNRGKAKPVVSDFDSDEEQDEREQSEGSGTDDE
# method-description: SMARCA2 Western blot degradation in MV4-11 cells
# Format: cell-based
# Set-up: SMARCA2/SMARCA4 protein degradation selectivity in MV4-11 cells; endogenous in cells; host or cells: MV4-11
# measurement-context: SMARCA2/4 selectivity, MV4-11 cells
readout: Selectivity in MV411

>>> obs_value("Cc1ncsc1-c1ccc(CNC(=O)[C@@H]2C[C@@H](O)CN2C(=O)C(c2cc(N3CC4(CCC(N5CCC(c6cnc(N7CCc8[nH]c9nnc(-c%10ccccc%10O)cc9c8[C@@H]7C)nc6)CC5)CC4)C3)no2)C(C)C)cc1 (single isomer, unassigned)")
"C (C (10-100 fold))"
>>> obs_value("C#Cc1ccc(CNC(=O)[C@@H]2C[C@@H](O)CN2C(=O)[C@@H](NC(=O)C2CCN(C[C@H]3CC[C@@H](N4CCc5[nH]c6nnc(-c7ccccc7O)cc6c5[C@H]4C)CC3)CC2)C(C)(C)C)cc1 (single isomer, unassigned)")
"C (C (10-100 fold))"
>>> obs_value("CC(C)(C)[C@H](NC(=O)[C@H]1CCC2(CC1)C[C@H](N1CCC(c3cnc(N4CCN5c6cc(-c7ccccc7O)nnc6NC[C@H]5C4)nc3)CC1)C2)C(=O)N1C[C@H](O)C[C@H]1C(=O)NCC#Cc1ccc(Cl)cc1 (single isomer, unassigned) [I-114]")
"C (C (10-100 fold))"

---

# test-system: SMARCA2 (Homo sapiens)
# method-description: MSD SMARCA2 degradation in A549 cell line
# Format: cell-based
# measurement-context: A549 cells
readout: SMARCA2 MSD A549 degradation 24 h: Average Dmax %

>>> obs_value("C#Cc1ccc(CNC(=O)[C@@H]2C[C@@H](O)CN2C(=O)[C@@H](NC(=O)[C@H]2CCC3(CC2)C[C@H](N2CCN(c4cnc(N5CCN6c7cc(-c8ccccc8O)nnc7NC[C@H]6C5)nc4)CC2)C3)C(C)(C)C)c(OC)c1 (single isomer, unassigned)")
"A (A (>90% degradation))"
>>> obs_value("C#Cc1ccc(CNC(=O)[C@@H]2C[C@@H](O)CN2C(=O)[C@@H](NC(=O)[C@H]2CCC3(CC2)C[C@H](N2CCC(c4cnc(N5CCN6c7cc(-c8ccccc8O)nnc7NC[C@H]6C5)nc4)CC2)C3)C(C)(C)C)c(OC)c1 (single isomer, unassigned)")
"A (A (>90% degradation))"
>>> obs_value("C#Cc1ccc(CNC(=O)[C@@H]2C[C@@H](O)CN2C(=O)[C@@H](NC(=O)[C@H]2CCC3(CC2)C[C@H](N2CCC(N4CC5(CC(N6CCN7c8cc(-c9ccccc9O)nnc8NC[C@H]7C6)C5)C4)CC2)C3)C(C)(C)C)c(Cl)c1 (single isomer, unassigned)")
"A (A (>90% degradation))"
>>> obs_value("C#Cc1ccc(CNC(=O)[C@@H]2C[C@@H](O)CN2C(=O)[C@@H](NC(=O)[C@H]2CCC3(CC2)C[C@H](N2CCC(c4cnc(N5CCN6c7cc(-c8ccccc8O)nnc7NC[C@H]6C5)nc4)CC2)C3)C(C)(C)C)c(OCCCOC)c1 (single isomer, unassigned)")
"A (A (>90% degradation))"

---

# Lookup of reported DC50 keyed by entry
# test-system: SMARCA4 (Homo sapiens)
# Construct: SMARCA2/SMARCA4 protein degradation selectivity in MV4-11 cells; endogenous in cells; host or cells: MV4-11
# Sequence (P51532 whole entry): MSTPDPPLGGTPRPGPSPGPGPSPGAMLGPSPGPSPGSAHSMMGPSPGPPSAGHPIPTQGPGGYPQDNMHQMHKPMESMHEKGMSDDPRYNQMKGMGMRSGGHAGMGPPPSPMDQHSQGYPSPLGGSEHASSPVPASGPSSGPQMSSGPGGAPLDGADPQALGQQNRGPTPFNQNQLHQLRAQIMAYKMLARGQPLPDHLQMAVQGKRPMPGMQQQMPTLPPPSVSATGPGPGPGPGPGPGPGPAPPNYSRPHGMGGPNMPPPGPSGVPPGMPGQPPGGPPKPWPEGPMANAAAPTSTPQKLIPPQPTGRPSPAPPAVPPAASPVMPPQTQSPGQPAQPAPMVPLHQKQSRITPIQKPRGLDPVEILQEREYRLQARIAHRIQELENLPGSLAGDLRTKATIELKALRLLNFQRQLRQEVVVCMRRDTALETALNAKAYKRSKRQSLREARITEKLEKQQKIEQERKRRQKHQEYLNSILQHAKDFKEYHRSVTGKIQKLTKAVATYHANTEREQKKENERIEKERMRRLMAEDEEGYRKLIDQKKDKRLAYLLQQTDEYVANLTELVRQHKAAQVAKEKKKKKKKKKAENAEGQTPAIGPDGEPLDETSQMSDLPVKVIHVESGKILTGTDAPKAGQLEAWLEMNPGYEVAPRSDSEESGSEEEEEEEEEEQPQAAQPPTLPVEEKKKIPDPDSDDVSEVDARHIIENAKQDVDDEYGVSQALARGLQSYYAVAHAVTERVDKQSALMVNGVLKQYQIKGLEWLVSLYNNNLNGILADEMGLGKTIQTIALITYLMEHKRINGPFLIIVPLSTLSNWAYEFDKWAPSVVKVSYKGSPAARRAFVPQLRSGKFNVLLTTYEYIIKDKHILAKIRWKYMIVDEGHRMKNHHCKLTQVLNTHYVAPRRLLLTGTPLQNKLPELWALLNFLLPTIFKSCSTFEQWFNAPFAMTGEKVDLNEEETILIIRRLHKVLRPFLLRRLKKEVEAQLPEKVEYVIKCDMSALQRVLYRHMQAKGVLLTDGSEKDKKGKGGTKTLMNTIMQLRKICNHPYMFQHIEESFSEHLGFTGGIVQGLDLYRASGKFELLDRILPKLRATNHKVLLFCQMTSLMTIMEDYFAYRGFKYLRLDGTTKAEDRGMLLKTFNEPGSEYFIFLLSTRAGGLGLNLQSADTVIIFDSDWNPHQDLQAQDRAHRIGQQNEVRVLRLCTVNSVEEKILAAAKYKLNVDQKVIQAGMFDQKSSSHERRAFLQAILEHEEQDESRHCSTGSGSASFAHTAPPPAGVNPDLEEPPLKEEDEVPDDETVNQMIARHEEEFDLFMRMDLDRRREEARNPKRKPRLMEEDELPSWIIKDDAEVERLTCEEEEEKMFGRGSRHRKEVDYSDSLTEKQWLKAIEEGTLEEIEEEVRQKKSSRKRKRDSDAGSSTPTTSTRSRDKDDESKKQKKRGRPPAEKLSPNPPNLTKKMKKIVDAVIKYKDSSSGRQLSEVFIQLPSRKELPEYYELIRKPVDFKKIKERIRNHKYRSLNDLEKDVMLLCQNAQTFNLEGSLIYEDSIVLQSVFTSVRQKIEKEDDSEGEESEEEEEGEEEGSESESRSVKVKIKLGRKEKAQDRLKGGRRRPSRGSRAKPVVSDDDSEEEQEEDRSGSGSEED
# method-description: SMARCA4 Western blot degradation in MV4-11 cells
# Type: cell-based
# measurement-context: MV4-11 cells, 24 h; read-out: SMARCA4 MSD MV411 degradation 24 h: Mean external-Abs DC50
# Protocol: Example 11. SMARCA2 and SMARCA4 Western Blot MV4-11 Degradation Cells were seeded into 6-well plates (MV4-11:4×10^6 cells/well/1 ml) and 1 ml of 2× compound solution was added into the well to make the final concentration and the plates were mixed well and incubated for 24 hours (No cytotoxicity was observed). The cell were collected with media and spun at 3000 rpm for 5 minutes. […] The membrane was washed three times with 5 minutes each and lastly the LiCOR was read. […]
readout: DC50

>>> obs_value("Cc1cc(Cl)ccc1C#CCNC(=O)[C@@H]1C[C@@H](O)CN1C(=O)[C@@H](NC(=O)[C@H]1CCC2(CC1)C[C@H](N1CCC(c3cnc(N4CCN5c6cc(-c7ccccc7O)nnc6NC[C@H]5C4)nc3)CC1)C2)C(C)(C)C (single isomer, unassigned) [I-126]")
"> 0.1 µM"
>>> obs_value("C#Cc1ccc(CNC(=O)[C@@H]2C[C@@H](O)CN2C(=O)[C@@H](NC(=O)N2CC3(CC(N4CCC(N5CC6(CC(N7CCN8c9cc(-c%10ccccc%10O)nnc9NC[C@H]8C7)C6)C5)CC4)C3)C2)C(C)(C)C)cc1")
"0.01 to 0.1 µM"
>>> obs_value("C#Cc1ccc(CNC(=O)[C@@H]2C[C@@H](O)CN2C(=O)[C@@H](NC(=O)C2CCC3(CC2)CC(N2CCC(c4ccc(N5CCN6c7cc(-c8ccccc8O)nnc7NC[C@H]6C5)cc4)CC2)C3)C(C)(C)C)cc1 (stereo partly shown)")
"> 0.1 µM"
>>> obs_value("C#Cc1ccc([C@H](C)NC(=O)[C@@H]2C[C@@H](O)CN2C(=O)[C@@H](c2cc(OCCN3CCC(N4CCC(N5CCC(CN6CCN7c8cc(-c9ccccc9O)nnc8NC[C@H]7C6)CC5)CC4)CC3)no2)C(C)C)cc1 (single isomer, unassigned)")
"> 0.1 µM"
